# System: IFNγ
# test: Cytokine assay: IFNγ release from PHA-L stimulated human PBMCs
# Assay type: cell-based
Labelling: IC50 reported below 2 nM becomes rule met; at or above becomes rule not met.

>>> group("COc1ccc(-c2cncc(C3COB(O)C3)c2)cc1OC1CCSC1 (centres unmarked) [Example 80]")
"rule not met"
>>> group("CCOc1cc(-c2cncc(C3COB(O)C3)c2C)c(F)cc1OC (single isomer, unassigned)")
"rule not met"
>>> group("COc1ccc(-c2cncc(C3COB(O)C3)c2)cc1OC1CCSC1 (centres unmarked) [Example 78]")
"rule met"
>>> group("CCOc1cc(-c2cncc(C3COB(O)C3)c2)cc(F)c1OC (single isomer, unassigned; enantiomer 2) [Example 214]")
"rule not met"
>>> group("CCCOc1cc(-c2nc(C3COB(O)C3)cc(C(F)(F)F)n2)ccc1OC (centres unmarked) [Example 55]")
"rule not met"
>>> group("CCOc1cc(-c2cncc(C3COB(O)C3)c2C)ccc1OC (single isomer, unassigned)")
"rule met"
>>> group("CCOc1cc(-c2cncc(C3COB(O)C3)c2)cc(Cl)c1OC (single isomer, unassigned) [Example 13]")
"rule not met"

###

# Test system: IFNγ
# test: Cytokine assay: IFNγ release from PHA-L stimulated human PBMCs
# Type: cell-based
metric.name: IC50

>>> measured("COc1ccc(-c2cncc(C3COB(O)C3)c2)cc1OCCO (single isomer, unassigned; enantiomer 2) [Example 228]")
"14.2 nM"
>>> measured("CCCOc1cc(-c2cncc(C3COB(O)C3)c2)ccc1SC (stereo not shown) [Example 112]")
"8.1 nM"
>>> measured("COc1ccc(-c2cncc(C3COB(O)C3)c2)cc1OC(C)C (single isomer, unassigned; enantiomer 2) [Example 190]")
"5.01 nM"
>>> measured("CCOc1cc(-c2cncc(C3COB(O)C3)c2)cc(Cl)c1OC (single isomer, unassigned; enantiomer 2) [Example 173]")
"30.2 nM"
>>> measured("COc1ccc(-c2cccc(C3COB(O)C3)n2)cc1OC1CCCC1 (single isomer, unassigned) [Example 67]")
"12.6 nM"
>>> measured("CCCOc1nc(-c2cncc(C3COB(O)C3)c2)ccc1OC (single isomer, unassigned) [Example 62]")
"1.44 nM"
>>> measured("CCCOc1cc(-c2nc(CO)cc(C3COB(O)C3)n2)ccc1OC (stereo not shown) [Example 76]")
"2.17 nM"
>>> measured("COc1ccc(-c2cncc(C3COB(O)C3)c2)cc1OC(C)C (single isomer, unassigned) [Example 6]")
"0.72 nM"
>>> measured("CCCOc1c(OC)ccc(-c2cncc(C3COB(O)C3)c2)c1F (stereo not shown) [Example 82]")
"1.07 nM"
>>> measured("CCCOc1cc(-c2cccc(C3COB(O)C3)c2)ccc1OC (single isomer, unassigned) [Example 89]")
"3.5 nM"
>>> measured("CCCOc1nc(-c2cncc(C3COB(O)C3)c2)c(F)cc1OC (single isomer, unassigned) [Example 16]")
"0.82 nM"
>>> measured("CCOc1cc(-c2cncc(C3COB(O)C3)c2)c(C)cc1OC (single isomer, unassigned) [Example 71]")
"18.8 nM"
>>> measured("COc1ccc(-c2cccc(C3COB(O)C3)n2)cc1OC1CCCC1 (single isomer, unassigned) [Example 66]")
"0.71 nM"
>>> measured("COc1ccc(-c2cncc(C3COB(O)C3)c2)cc1OC1CCSC1 (stereo not shown) [Example 79]")
"0.82 nM"
>>> measured("CSc1ccc(-c2cncc(C3COB(O)C3)c2)cc1OC1CCCC1 (single isomer, unassigned) [Example 100]")
"4.32 nM"
>>> measured("CCCOc1cc(-c2cccc(C3COB(O)C3)c2)ccc1OC (single isomer, unassigned) [Example 90]")
"13.7 nM"
